Test system: JAK3(JH1domain-catalytic);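 note: KINOMEscan scanMAX binding as percent activity remaining versus control; lower means stronger binding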
measurement conditions: Compound Concentration (nM):1000
experimental readout: Percent Control (%)
Answers are plain numbers, in %.

// for each compound in input: emit Percent Control
1. COc1cc2ncnc(Nc3ccc4c(cnn4Cc4ccccc4)c3)c2cc1OC.Cl [GW282449A]
2. COc1cc(C)c(N(C)C(=O)CN(C)C)cc1Nc1nc(Nc2cccc(F)c2C(N)=O)c2cc[nH]c2n1
3. CC(C)COC(=O)c1ccc2c(c1)/C(=C/Nc1ccc(S(N)(=O)=O)cc1)C(=O)N2 [GW416981X]
4. CN(C)CCNC(=O)Nc1ccc(N(C)c2ccnc(Nc3ccc(CS(C)(=O)=O)cc3)n2)cc1.Cl [GW830900A]
5. COc1ccc2c(-c3ccnc(Nc4cccc(OC(F)(F)F)c4)n3)cnn2n1 [GW810372X]
6. NS(=O)(=O)c1ccc(N/N=C2\C(=O)Nc3ccc(C(=O)NCCc4c[nH]cn4)cc32)cc1 [GW300660X]

Response:
1. 100
2. 92
3. 14
4. 40
5. 65
6. 64

# batch size: 3; output Percent Control per entry
1. COC(=O)Nc1nc2ccc(Oc3ccc(NC(=O)Nc4cc(C(F)(F)F)ccc4F)cc3)cc2s1.Cl [GW693917A]
2. COc1cc(/C=N/Nc2ncnc3[nH]ncc23)ccc1O [GW578748X]
3. COc1ccc(COc2ccc(Cc3cnc(N)nc3N)cc2OC)cc1 [GW632580X]

Response:
61
47
77

Value sought for every listed compound: Percent Control.
1. CCc1ccc(Oc2nccc(-c3c(-c4ccc(F)cc4)ncn3C3CCNCC3)n2)cc1
2. NS(=O)(=O)c1ccc(N/N=C2\C(=O)Nc3ccc(C(=O)NCc4ccncc4)cc32)cc1 [GW300657X]

Response:
100
37

Return reported Percent Control values for all items listed beneath this line.
1. NS(=O)(=O)c1ccc(Nc2ncc(-c3ccccc3)o2)cc1 [GW572399X]
2. Cl.O=C(Nc1ccc(Oc2ccc3[nH]c(NC(=O)c4ccccc4)nc3c2)cc1)Nc1cc(C(F)(F)F)ccc1F [GW709042A]
3. COc1cc(C=NNc2ncnc3c2cnn3-c2ccccc2)ccc1O [GW513184X]
4. COc1ccc2[nH]c3c4[nH]c5ccc(OC)cc5c4c4c(c3c2c1)C(=O)NC4=O [GW296115X]
5. COc1cc2ncn(-c3cc(O[C@H](C)c4ccccc4Cl)c(C(N)=O)s3)c2cc1OC [GSK237701A]
6. O=C(Nc1n[nH]c2nc(-c3ccc(O)cc3)c(Br)cc12)C1CC1

Response:
1. 71
2. 77
3. 81
4. 47
5. 100
6. 6.9
